System: Nuclear respiratory factor 1 (Homo sapiens) (UniProt Q16656)
Sequence (Q16656 whole entry, looked up): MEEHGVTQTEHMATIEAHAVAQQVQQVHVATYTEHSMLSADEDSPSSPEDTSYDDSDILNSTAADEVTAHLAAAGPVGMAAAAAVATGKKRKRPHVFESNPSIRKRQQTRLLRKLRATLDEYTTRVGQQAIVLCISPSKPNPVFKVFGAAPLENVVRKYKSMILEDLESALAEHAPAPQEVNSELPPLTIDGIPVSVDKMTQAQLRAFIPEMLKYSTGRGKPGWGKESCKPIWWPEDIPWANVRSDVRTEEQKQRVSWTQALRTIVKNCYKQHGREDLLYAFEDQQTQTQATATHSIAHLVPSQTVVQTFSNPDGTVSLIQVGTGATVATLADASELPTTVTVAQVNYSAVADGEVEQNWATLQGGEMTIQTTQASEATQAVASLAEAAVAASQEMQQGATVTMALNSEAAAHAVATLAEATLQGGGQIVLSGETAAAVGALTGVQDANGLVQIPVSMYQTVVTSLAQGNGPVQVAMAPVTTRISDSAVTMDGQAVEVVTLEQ
Assay comment: ATG_NRF1_CIS: Attagene CIS-FACTORIAL HepG2 Assay for human Nuclear Respiratory Factor 1 (NRF1) Orphan Gene (AID 2282987)
Experimental context: HepG2 NRF1 cis-element reporter, Attagene multiplex; actives raise or lower the signal
The source made the active and inactive calls. The calls were made as follows: active = hit-call score of the fitted dose curve at least 0.9, where 1 is the maximum; inactive = score below 0.9.
Outcome codes: active, inactive

>>> assigned_label("CNC(=O)O/N=C/C(C)(C)S(C)(=O)=O")
"inactive"
>>> assigned_label("CC1(C)[C@H](C(=O)O[C@H](C#N)c2cccc(Oc3ccccc3)c2)[C@@H]1/C=C(\\Cl)C(F)(F)F")
"inactive"
>>> assigned_label("O=[N+]([O-])c1ccccc1O")
"inactive"
>>> assigned_label("CN(C1CCCCC1)C1CCCCC1")
"inactive"
>>> assigned_label("O=[N+]([O-])c1c2ccccc2cc2ccccc12")
"inactive"
>>> assigned_label("COP(=S)(OC)Oc1cc(Cl)c(I)cc1Cl")
"active"
>>> assigned_label("CCCCCCCCBr")
"inactive"
